The origin of these recorded values is patent US20240254118A1.

Test system: HCT116 MTAP-deleted cells
measurement-description: Cell viability assay (CellTiter-Glo, 7 days), HCT116 MTAP-deleted
condition-set: Homo sapiens, HCT-116, 168 h
readout-name: CC50

Use these answered entries as a reference point.
compound-structure-string	result
CN(C(=O)C(C)(C)C)N(Cc1ccc(C(F)(F)F)cn1)C(=O)c1ccc2nc(N)c3cnn(C)c3c2c1	< 100 nM
CN(C(=O)c1ncccn1)N(Cc1ccc(C(F)(F)F)cn1)C(=O)c1ccc2nc(N)c3cnn(C)c3c2c1	< 100 nM
Cn1ncc2c(N)nc3cc(F)c(C(=O)N(Cc4ccc(C(F)(F)F)cn4)N4CCCOC4=O)cc3c21	< 100 nM
CCOC(=O)N(C)N(Cc1ccc(C(F)(F)F)cn1)C(=O)c1ccc2nc(N)c3cnn(C)c3c2c1	< 100 nM
Cc1cc(CN(C(=O)c2ccc3nc(N)c4cnn(C)c4c3c2)N(C)C(=O)C2CC2)c(F)cc1-c1cnn(C(F)(F)F)c1	< 100 nM

Q) Query: CC50; subject: CN(C(=O)C1CC1)N(Cc1ccc(-c2cnsc2)cc1F)C(=O)c1ccc2nc(N)c3cnn(C)c3c2c1
A) < 100 nM

Q) Subsequent entry: Cn1ncc2c(N)nc3ccc(C(=O)N(Cc4ccc(C(F)(F)F)cn4)N4CCc5ccccc5C4=O)cc3c21
A) < 100 nM

----------
Test system: HCT116 MTAP-deleted cells
measurement-description: Cell viability assay (CellTiter-Glo, 7 days), HCT116 MTAP-deleted
condition-set: Homo sapiens, HCT-116, 168 h
readout-name: CC50

compound-structure-string	CC50
Cn1ncc2c(N)nc3ccc(C(=O)N(Cc4ccc(-c5cnn(C(F)(F)F)c5)cn4)N4CCCCC4=O)cc3c21	< 100 nM
CN(C(=O)C1CC1)N(Cc1ccc(OC(F)F)cn1)C(=O)c1cc2c(cc1F)nc(N)c1cnn(C)c12	< 100 nM
Cn1ncc2c(N)nc3ccc(C(=O)N(Cc4ccc(C(F)(F)F)cn4)N4CCC(F)(F)C4=O)cc3c21	< 100 nM
CC(=O)N(C)N(Cc1ccc(-c2cnn(C(F)F)c2)cc1C#N)C(=O)c1ccc2nc(N)c3cnn(C)c3c2c1	< 100 nM
Cn1ncc2c(N)nc3ccc(C(=O)N(Cc4csc(C(F)(F)F)n4)N4CCCOC4=O)cc3c21	100 to 1000 nM

Q) What CC50 value was documented for this compound, CN(C(=O)[C@@H]1C[C@@H]1F)N(Cc1ccc(C(F)(F)F)cn1)C(=O)c1ccc2nc(N)c3cnn(C)c3c2c1 ?
A) < 100 nM

Q) Same thing, different compound: CN(C(=O)C1CC1)N(Cc1ncc(Cl)cc1F)C(=O)c1ccc2nc(N)c3cnn(C)c3c2c1
A) < 100 nM

----------
Listed below: CC50 values for each entry.
System: HCT116 MTAP-deleted cells
measurement-description: Cell viability assay (CellTiter-Glo, 7 days), HCT116 MTAP-deleted
condition-set: Homo sapiens, HCT-116, 168 h

Guide cases for CC50, answers given:
molecule	readout-name	result
CC(=O)N(C)N(Cc1cccc2ccoc12)C(=O)c1ccc2nc(N)c3cnn(C)c3c2c1	CC50	< 100 nM
CN(C(=O)c1cocn1)N(Cc1ccc(C(F)(F)F)cn1)C(=O)c1ccc2nc(N)c3cnn(C)c3c2c1	CC50	< 100 nM
CN(C(=O)C1CC1)N(Cc1cc(F)c(F)cc1F)C(=O)c1ccc2nc(N)c3cnn(C)c3c2c1	CC50	< 100 nM
CC(c1ccc(C(F)(F)F)cn1)N(C(=O)c1ccc2nc(N)c3cscc3c2c1)N(C)C (stereo not drawn)	CC50	100 to 1000 nM
COCc1cc(C(F)(F)F)ccc1CN(C(=O)c1ccc2nc(N)c3cnn(C)c3c2c1)N(C)C(=O)C1CC1	CC50	< 100 nM
Cn1ncc2c(N)nc3ccc(C(=O)N(Cc4cn5cc(C#N)ccc5n4)N4CCCC4=O)cc3c21	CC50	100 to 1000 nM

Q) Value lookup for CC50; key = CN(C(=O)C1CC1)N(Cc1ccc(C(F)(F)F)cn1)C(=O)c1cc2c(cn1)nc(N)c1cnn(C)c12
A) 100 to 1000 nM

Q) Also need CN(C(=O)C1CC1)N(Cc1ccc(C#CC2CCCO2)cc1F)C(=O)c1ccc2nc(N)c3cnn(C)c3c2c1 (stereo not drawn) , thanks.
A) < 100 nM

Q) Same question for CCC(=O)N(CC)N(Cc1ccc(C(F)(F)F)cn1)C(=O)c1cc2c(cc1F)nc(N)c1cnn(C)c12 please.
A) < 100 nM

Q) Check CC(=O)NN(Cc1ccc(C(F)(F)F)cc1F)C(=O)c1ccc2nc(N)c3cnn(C)c3c2c1 too.
A) < 100 nM

Q) Proceed to CC(=O)N(C)N(Cc1nc2cc(F)ccc2s1)C(=O)c1ccc2nc(N)c3cnn(C)c3c2c1
A) < 100 nM

Q) Now give it for CC(=O)N(C)N(Cc1nc2cc(C(F)(F)F)ccc2s1)C(=O)c1cc2c(cc1Cl)nc(N)c1cnn(C)c12 too.
A) 100 to 1000 nM
